- Test system: SK-OV-3
- protocol.text: NCI tumour cell line growth inhibition, 48 h
Active and inactive are the calls of the source. Cut-off read from the data, not from the text of the source: active = GI50 up to about 1.1 µM and inactive = higher.
The entries below come with measured GI50 values attached.

- compound: "CCCSCC(P(=O)(O)O)P(=O)(O)O.NC1CCCCC1"
  GI50: "> 100 µM (inactive)"
- compound: "Cc1ccc(C(=O)N(C(C)C)C(C)C)cc1/N=N/N(C)C"
  GI50: "> 100 µM (inactive)"
- compound: "O=C(/C=C/c1c(O)ccc2ccccc12)c1cccc2ccccc12"
  GI50: "> 100 µM (inactive)"
- compound: "CSCC[C@@H]1C(=O)N(C)[C@H](C(C)(C)C)N1C(=O)c1ccccc1"
  GI50: "> 100 µM (inactive)"
- compound: "NNC(=O)/C(NC(=O)c1ccccc1)=C(\\N)c1cccc([N+](=O)[O-])c1"
  GI50: "> 100 µM (inactive)"
- compound: "NC(Cc1cccc([N+](=O)[O-])c1)C(=O)O (centres undefined)"
  GI50: "> 100 µM (inactive)"
- compound: "COc1ccccc1C(O)(c1ccccc1)C(O)(c1ccccc1)c1ccccc1OC (centres undefined)"
  GI50: "> 31.6 µM (inactive)"
- compound: "O=C1C(S(=O)(=O)c2ccccc2)=C(CS(=O)(=O)c2ccccc2)[C@@H](OCc2ccccc2)[C@@H]1OCc1ccccc1"
  GI50: "41.5 µM (inactive)"

Lookup: What value of GI50 has been reported for the following compound? CC(=O)c1ccc2c(c1)CC1(C2)Cc2cc3c(c(C(=O)O)c2C1)CCC3 (centres undefined)
Found: > 100 µM (inactive)

---

- Test system: CCRF-CEM
- protocol.text: NCI tumour cell line growth inhibition, 48 h
Activity calls are given as the source filed them. Cut-off read from the data, not from the text of the source: active = GI50 up to about 1.1 µM and inactive = higher.
assay.endpoint: GI50

- molecule: "O=C1c2c(ccc3c2CCCC3)CC1Cc1ccc2c(c1)CCCC2 (centres undefined)"
  target.system: "CCRF-CEM"
  result: "21.3 µM (inactive)"
- molecule: "CC1(c2ccc(F)cc2)C2C(=O)NC(=O)C1C(=O)NC2=O (centres undefined)"
  target.system: "CCRF-CEM"
  result: "> 100 µM (inactive)"
- molecule: "CO[C@@]12C[C@@H](C)C3=CCC(C)=C3CC1=C(C)C(=O)O2"
  target.system: "CCRF-CEM"
  result: "50.8 µM (inactive)"

Lookup: What value of GI50 has been reported for the following molecule? `O=C(O)CNS(=O)(=O)c1ccc(NCc2ccccc2)cc1`
Found: > 100 µM (inactive)

---

- Tested on: A549
- protocol.text: NCI tumour cell line growth inhibition, 48 h
Calls of active or inactive are those of the source. No stated cut-off is given here; in the data, active = GI50 up to about 1.1 µM and inactive = higher.
The entries below come with measured GI50 values attached.

Please review the entries below; each comes with its answer.
- compound: "NC(=O)C(=O)c1ncn(Cc2ccccc2)c1N"
  GI50: "> 100 µM (inactive)"
- compound: "CCCc1cc(-c2ccc(-c3cc(CCC)c(C=O)[nH]3)s2)[nH]c1C=O"
  GI50: "4.42 µM (inactive)"
- compound: "CCC1c2[nH]c3ccccc3c2C[C@H]2C(=O)NC(CCCCNC(=O)OC(C)(C)C)C(=O)N12 (some centres not stated)"
  GI50: "34.3 µM (inactive)"
- compound: "N#CSC#Cc1ccc(C#CSC#N)cc1"
  GI50: "17.8 µM (inactive)"
- compound: "CCOC(=O)C1(Cc2ccc3ccccc3c2)CCCCCN1 (configuration not stated)"
  GI50: "52.4 µM (inactive)"
- compound: "COC1OC(COCc2ccc(Cl)cc2)C(OCc2ccc(Cl)cc2)C1N=[N+]=[N-] (configuration not stated)"
  GI50: "4.32 µM (inactive)"

For the next question, use this compound.
Lookup: What value of GI50 has been reported for the following compound? `OC1=C(c2ccccc2)C2=NCCN2c2ccccc21`
Found: 50.6 µM (inactive)
